Just for reference, patent US20250115671A1 is where these values come from.

biological target: human CCR8 (human, UniProt P51685 1-355); experiment: cell-based or functional assay
Sequence (P51685 whole entry): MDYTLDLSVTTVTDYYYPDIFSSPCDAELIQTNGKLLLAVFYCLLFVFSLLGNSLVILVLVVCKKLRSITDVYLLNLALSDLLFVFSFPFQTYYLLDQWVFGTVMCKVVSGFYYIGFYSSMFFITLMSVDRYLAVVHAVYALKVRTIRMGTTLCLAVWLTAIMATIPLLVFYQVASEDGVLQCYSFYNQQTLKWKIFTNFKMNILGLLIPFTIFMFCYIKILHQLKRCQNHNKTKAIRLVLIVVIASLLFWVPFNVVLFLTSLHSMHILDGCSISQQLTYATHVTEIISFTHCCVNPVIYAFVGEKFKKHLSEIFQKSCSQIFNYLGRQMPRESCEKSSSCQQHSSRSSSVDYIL

binder	measurement-unit	IC50(nM), blocking activity
hu305-5W-3a-AF (antibody, V domains shown, also called afucosylated hu305-5W-3a) VH: QVQLKQSGPGLVKPSETLSLTCTVSGFSLAVYGVHWVRQPPGKGLEWLGVIWRGGTTDYNPSLKSRLTFSKDSSKSQVSLKLSSVTAADTAVYYCAKNRVTTVVAPNFYAMDYWGQGTLVTVSS VL: DIVMTQSPDSLAVSLGERATINCKSSQSLLYSGNQKNYLAWYQQKPGQPPKLLIYWASTRKSGVPDRFSGSGSGTDFTLTISSLKAEDVAVYYCQQYYTYPLTFGQGTRLEIK	nM	1.82
